# Assay: Stability in mouse plasma assessed as parent compound remaining at 10 uM measured after 180 mins by UPLC-MS/MS analysis
# Assay type: ADME, cell-free
# Conditions: read-out: Stabilty
Measurement Label: remaining at 3 h, 10 µM
Kindly report the value followed by its unit.

Record COc1cc2c(cc1O)CCC(C)(CC(=O)NCCCCCCCCNc1c3c(nc4cc(Cl)ccc14)CCCC3)O2 (stereo unspecified) . Reported remaining at 3 h, 10 µM: 100%

---

# Assay: Half life in rat liver microsomes at 5 uM by UPLC-MS/MS analysis
# Type: ADME, Microsome
Measurement Label: half-life at 5 µM
Kindly report the value followed by its unit.

Record COc1cc2c(cc1O)CCC(C)(CC(=O)NCCCCCCCCNc1c3c(nc4cc(Cl)ccc14)CCCC3)O2 (stereo unspecified) . Reported half-life at 5 µM: 42.4 min
